Recorded values, source the RNAGym collection of RNA variant scans (doi:10.7554/elife.80360).

B1: CPEB3 Ribozyme (parent)
chain: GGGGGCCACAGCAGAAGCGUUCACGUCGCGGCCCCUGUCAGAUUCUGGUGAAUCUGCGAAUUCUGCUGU

Variants of: B1
Assay: self-cleavage, relative activity (ratio to wild type); higher = more cleavage; co-transcriptional
Listed variants paired with reported self-cleavage
Would you mind answering with just the numeric figure?

Given item G1C C66U , the value recorded as its self-cleavage is 0.172

Given item G14C C22G , the value recorded as its self-cleavage is 0.122

Further cases:
Given item G25U C39U , the value recorded as its self-cleavage is 0.151
